Cited source for all entries: ChEMBL document CHEMBL6127126

run_description: Lipophilicity, logD of compound in octanol-water at pH 7.4 by shake-flask method
Type: physicochemical
condition_parameters: read-out: logD
observed_property: logD

Consider the worked cases shown below.
{"molecule": "CC1(C)[C@H](NC(=O)c2ccc(N3CCN(CC4CCN(c5ccc6c(c5)C(=O)N(C5CCC(=O)NC5=O)C6=O)CC4)CC3)cc2)C(C)(C)[C@H]1Oc1ccc(C#N)c(Cl)c1 (stereo partly drawn)", "logD": 4.6}
{"molecule": "O=C1CC[C@H](N2Cc3cc(N4CCN(CC5CCN(c6ccc([C@@H]7c8ccc(O)cc8CC[C@@H]7c7ccccc7)cc6)CC5)CC4)ccc3C2=O)C(=O)N1", "logD": 4.6}
{"molecule": "N#Cc1ccc(O[C@H]2CC[C@H](NC(=O)c3ccc(N4CCC(CN5CCN(c6cc7c(cc6F)C(=O)N(C6CCC(=O)NC6=O)C7=O)CC5)CC4)nn3)CC2)cc1Cl (stereo partly drawn) [BAVDEGALUTAMIDE]", "logD": 4.8}
{"molecule": "Cc1nc(CCC(=O)NCCCCC(=O)N[C@H](C(=O)N2C[C@H](O)C[C@H]2C(=O)NCc2ccc(-c3scnc3C)cc2)C(C)(C)C)ccc1-c1cnc(NCc2c(Cl)ccc3c2CCO3)n2cnnc12", "logD": 3.8}
{"molecule": "Cn1c(=O)n(C2CCC(=O)NC2=O)c2cccc(C#CCOC3CCN(C[C@H]4CC[C@H](n5cc(NC(=O)c6cnn7ccc(N8C[C@H]9C[C@@H]8CO9)nc67)c(C(F)F)n5)CC4)CC3)c21 (stereo partly drawn)", "logD": 3.5}

Sample `Cc1ncsc1-c1ccc([C@H](C)NC(=O)[C@@H]2C[C@@H](O)CN2C(=O)[C@@H](NC(=O)CCCCCC(=O)N2CCN(CC[C@H](CSc3ccccc3)Nc3ccc(S(=O)(=O)NC(=O)c4ccc(N5CCN(CC6=C(c7ccc(Cl)cc7)CCC(C)(C)C6)CC5)cc4)cc3S(=O)(=O)C(F)(F)F)CC2)C(C)(C)C)cc1` ; logD observed: 3.9

Sample `Cc1ncsc1-c1ccc(CNC(=O)[C@@H]2C[C@@H](O)CN2C(=O)[C@@H](NC(=O)C2(F)CC2)C(C)(C)C)c(OCCOc2ccc(CN3CCN(c4cc(-c5ccccc5O)nnc4N)CC3)cc2)c1` ; logD observed: 3.1

Sample COc1cc(O[C@H]2C(C)(C)[C@H](NC(=O)c3ccc(N4CCC(CN5CCN(c6ccc(C(=O)N[C@H]7CCC(=O)NC7=O)c(F)c6)CC5)CC4)cc3)C2(C)C)ccc1C#N [LUXDEGALUTAMIDE] ; logD observed: 3.7

---

run_description: Oral bioavailability in C57 BL/6 or CD-1 mouse at 1 mg/kg measured upto 24 hrs by LC-MS/MS analysis
Format: ADME, organism-based
condition_parameters: in vivo
observed_property: bioavailability (%)
Provide only the numeric value, understood in %.

{"molecule": "CC1(C)[C@H](NC(=O)c2ccc(N3CCN(CC4CCN(c5ccc6c(c5)C(=O)N(C5CCC(=O)NC5=O)C6=O)CC4)CC3)cc2)C(C)(C)[C@H]1Oc1ccc(C#N)c(Cl)c1 (stereo not given in full)", "bioavailability, %": 61.4}
{"molecule": "N#Cc1ccc(O[C@H]2CC[C@H](NC(=O)c3ccc(N4CCC(CN5CCN(c6cc7c(cc6F)C(=O)N(C6CCC(=O)NC6=O)C7=O)CC5)CC4)nn3)CC2)cc1Cl (stereo not given in full) [BAVDEGALUTAMIDE]", "bioavailability, %": 64.6}
{"molecule": "Cn1c(=O)n(C2CCC(=O)NC2=O)c2cccc(C#CCOC3CCN(C[C@H]4CC[C@H](n5cc(NC(=O)c6cnn7ccc(N8C[C@H]9C[C@@H]8CO9)nc67)c(C(F)F)n5)CC4)CC3)c21 (stereo not given in full)", "bioavailability, %": 23.7}
{"molecule": "COc1cc(O[C@H]2C(C)(C)[C@H](NC(=O)c3ccc(N4CCC(CN5CCN(c6ccc(C(=O)N[C@H]7CCC(=O)NC7=O)c(F)c6)CC5)CC4)cc3)C2(C)C)ccc1C#N [LUXDEGALUTAMIDE]", "bioavailability, %": 57.6}

Sample `Cc1ncsc1-c1ccc(CNC(=O)[C@@H]2C[C@@H](O)CN2C(=O)[C@@H](NC(=O)C2(F)CC2)C(C)(C)C)c(OCCOc2ccc(CN3CCN(c4cc(-c5ccccc5O)nnc4N)CC3)cc2)c1` ; bioavailability observed: 2.7
